# Assay Info: NCI Yeast Anticancer Drug Screen. Data for the mec2-1 strain (AID 157)
# Condition Label: S. cerevisiae mec2-1 strain, at 1.2 µM, active compounds read high
About 79,000 compounds went through this panel and 15% of them were active in at least one assay; those are over-represented in the sample as a whole.
Experimental Readout: growth inhibition (%)
Respond with the bare value in %.

Reference set (3 entries):
{"columns": ["Compound", "growth inhibition (%)"],
 "data": [
  ["CC(C(=O)N1C(=O)N(C(=O)C(C)C(O)c2ccccc2)C2CCCCC21)C(O)c1ccccc1 (configuration not stated)", 3],
  ["O=c1c2ccccc2nc(-c2ccc(Cl)cc2)n1O", 50],
  ["CO[C@@]1([C@@H](Cl)c2ccccc2)C(=O)N(C)/C(=C\\c2ccccc2)C(=O)N1C", -3]
]}

Request: Entry O=S(=O)(NC1CCCC(c2ccccc2)C1)c1ccccc1 (configuration not stated) : reported growth inhibition = ?
Result: -8

Request: Entry O=C(Nc1ccc(Cl)cc1)c1cc2cc(N=Nc3ccccc3Cl)ccc2oc1=O has what growth inhibition?
Result: 3

Request: Field request: growth inhibition | item: Cc1cccc(/C=N/NC(=S)NC2CCCCC2)n1
Result: 1

Request: So what does the record say about growth inhibition for Nc1cc2c(cc1N)-c1ccccc1C2=O ?
Result: -2

Request: Which growth inhibition value belongs to COc1ccc2c3c1OC(C)C31CC(=O)CCC1CC2 (configuration not stated) ?
Result: -4

Request: # query: growth inhibition of entry O=S(=O)(c1cccc(C(F)(F)F)c1)N1c2ccccc2-n2cccc2C1c1cccnc1 (configuration not stated)
Result: -59

Request: Which growth inhibition is reported for this compound? O=C(NCCNCCNC(=O)c1cc(-c2ccccc2)nc2ccccc12)c1cc(-c2ccccc2)nc2ccccc12
Result: -3

Request: For the compound shown here, O=C(c1cc(=O)c2ccc(O)cc2o1)c1ccc(Cl)cc1Cl , give the reported growth inhibition.
Result: -27
